Entries and their measured IC50 follow.
target or system: huMAO-A (Homo sapiens)
Sequence (P21397 1-527): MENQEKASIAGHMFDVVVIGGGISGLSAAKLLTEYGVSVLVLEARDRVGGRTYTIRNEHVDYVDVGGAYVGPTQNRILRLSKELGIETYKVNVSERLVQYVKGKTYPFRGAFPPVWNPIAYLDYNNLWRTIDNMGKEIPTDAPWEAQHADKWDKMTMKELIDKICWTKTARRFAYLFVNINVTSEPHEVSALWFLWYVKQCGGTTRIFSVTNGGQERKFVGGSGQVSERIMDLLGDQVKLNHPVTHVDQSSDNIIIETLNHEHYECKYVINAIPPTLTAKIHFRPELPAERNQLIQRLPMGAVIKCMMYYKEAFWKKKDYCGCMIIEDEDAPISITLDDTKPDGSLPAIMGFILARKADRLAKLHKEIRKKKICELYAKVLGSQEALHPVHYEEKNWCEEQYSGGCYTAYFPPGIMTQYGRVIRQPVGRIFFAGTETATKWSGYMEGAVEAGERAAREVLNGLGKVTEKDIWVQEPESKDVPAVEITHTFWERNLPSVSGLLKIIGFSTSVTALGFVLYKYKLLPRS
Record the value in µM, omitting the unit from your answer.

Sample answers from the record:
CCN(CCCCCCOc1ccc(/C=C/C(=O)c2c(O)cc(OC)c(O)c2OC)cc1)Cc1ccccc1OC [Compound 17f] = 37.5
CCN(CCCCCCOc1ccc(/C=C/C(=O)c2c(O)cc(OC)c(OC)c2OC)cc1)Cc1ccccc1OC = 43.6
CCN(CC)CCCCOc1ccc(/C=C/C(=O)c2c(O)cc(OC)c(OC)c2OC)cc1 = 27.9

Data request: Report IC50 for `CCN(CCCOc1ccc(/C=C/C(=O)c2c(O)cc(OC)c(OC)c2OC)cc1)Cc1ccccc1OC` please.
Data returned: 19.8

Data request: Please report the recorded IC50 for `COc1cc(O)c(C(=O)/C=C/c2ccc(O)cc2)c(OC)c1O` .
Data returned: 15.4

Data request: Could you share which IC50 value was measured for `COc1ccccc1CN(C)CCCCOc1ccc(/C=C/C(=O)c2c(O)cc(OC)c(OC)c2OC)cc1` ?
Data returned: 35.7

Data request: What measured IC50 goes with COc1ccccc1CN(C)CCCCOc1ccc(/C=C/C(=O)c2c(O)cc(OC)c(O)c2OC)cc1 [Compound 17c] ?
Data returned: 18.3

Data request: Field request: IC50 | item: `COc1ccccc1CN(C)CCCCCCOc1ccc(/C=C/C(=O)c2c(O)cc(OC)c(OC)c2OC)cc1`
Data returned: 37.8

Data request: So what's the measured IC50 for this one? `CCN(CCCCOc1ccc(/C=C/C(=O)c2c(O)cc(OC)c(OC)c2OC)cc1)Cc1ccccc1OC`
Data returned: 38.2
